Tested on: Dkk1-LRP5-TCF-Luciferase
Assay: Functional Dkk1-LRP5-TCF-Luciferase Assay in U2OS Cells
Conditions: maximum fold induction over DMSO control
Classify by measured A = MAX FOLD Induction/DMSO CONTROL: 1 (yes) if it is equal to or exceeds 3 fold, 0 (no) if it is smaller.

>>> answer_label("CN(C)CCN1CCN(c2nccc(-c3ccc4ccccc4c3)n2)CC1")
"0 (no)"
>>> answer_label("NCC1CCN(c2cc(-c3ccc4ccccc4c3)ncn2)CC1")
"1 (yes)"
>>> answer_label("CN1CCN(CC2CCN(c3nccc(-c4ccc5ccccc5c4)n3)CC2)CC1")
"1 (yes)"
>>> answer_label("O[C@H]1CCCN(CC2CCN(c3nccc(-c4ccc5ccccc5c4)n3)C2)C1 (some centres unmarked)")
"1 (yes)"
>>> answer_label("CC(C)(C)NCC1CCN(c2nccc(-c3ccc4ccccc4c3)n2)C1 (centres unmarked)")
"1 (yes)"
>>> answer_label("NC(=S)C1CCN(c2nccc(-c3ccc4ccccc4c3)n2)CC1")
"0 (no)"
>>> answer_label("COC(=O)[C@H](N)C1CCN(c2nccc(-c3ccc4ccccc4c3)n2)CC1")
"1 (yes)"
>>> answer_label("CCN(CCO)CC1CCN(c2nccc(-c3ccc4ccccc4c3)n2)CC1")
"0 (no)"
>>> answer_label("c1ccc2cc(-c3ccnc(NCC4CCNCC4)n3)ccc2c1")
"1 (yes)"
>>> answer_label("CC(C)(C)NC[C@@H]1CCN(c2nccc(-c3ccc4ccccc4c3)n2)C1")
"1 (yes)"
>>> answer_label("c1ccc2cc(-c3ccnc(NCCc4ccncc4)n3)ccc2c1")
"0 (no)"

----------
Test system: Dkk1-LRP5-TCF-Luciferase
Experiment: Functional Dkk1-LRP5-TCF-Luciferase Assay in U2OS Cells
Settings: maximum fold induction over DMSO control
Let's look at some compounds and their measured A = MAX FOLD Induction/DMSO CONTROL.
assay endpoint: A = MAX FOLD Induction/DMSO CONTROL (fold)

>>> obs_value("CN(C)[C@H]1CCN([C@H]2CCN(c3nccc(-c4ccc5ccccc5c4)n3)C2)C1")
2.030
>>> obs_value("CN(c1nccc(-c2ccc3ccccc3c2)n1)C1CCNCC1")
2.320
>>> obs_value("c1ccc2cc(-c3ccnc(N4CC[C@H](Cn5ccnc5)C4)n3)ccc2c1")
3.290
>>> obs_value("CC1(C)OC(=O)N[C@@H]1C1CCN(c2nccc(-c3ccc4ccccc4c3)n2)CC1")
1.585
>>> obs_value("CN(C)S(=O)(=O)N1CC[C@H](Nc2nccc(-c3ccc4ccccc4c3)n2)C1")
2.050
>>> obs_value("c1ccc2cc(-c3ccnc(N4CC[C@H](CN5CCCC5)C4)n3)ccc2c1")
6.053
>>> obs_value("N#CC1CCN(c2nccc(-c3ccc4ccccc4c3)n2)CC1")
5.015
>>> obs_value("c1ccc2cc(-c3ccnc(N4CCC(Cn5ccnc5)CC4)n3)ccc2c1")
4.630
>>> obs_value("NC(=O)N1CC[C@H](Nc2nccc(-c3ccc4ccccc4c3)n2)C1")
2.750
>>> obs_value("c1ccc2cc(-c3ccnc(NC[C@H]4CCNC4)n3)ccc2c1")
6.810

----------
Tested on: Dkk1-LRP5-TCF-Luciferase
Assay: Functional Dkk1-LRP5-TCF-Luciferase Assay in U2OS Cells
Conditions: maximum fold induction over DMSO control
assay endpoint: A = MAX FOLD Induction/DMSO CONTROL (fold)

>>> obs_value("NCC1CCN(c2ccnc(-c3ccc4ccccc4c3)n2)CC1")
5.673
>>> obs_value("c1ccc2cc(-c3ccnc(N4CCC(CN5CCOCC5)C4)n3)ccc2c1 (stereo not drawn)")
2.990
>>> obs_value("NCC1CCN(c2nccc(-c3ccc4ccccc4c3)n2)CC1")
3.390
>>> obs_value("c1ccc2cc(-c3ccnc(N4CCC(CN5CCC5)C4)n3)ccc2c1 (stereo not drawn)")
2.500
>>> obs_value("CS(=O)(=O)N1CC[C@H](Nc2nccc(-c3ccc4ccccc4c3)n2)C1")
2.585
>>> obs_value("O=C1CN([C@H]2CCN(c3nccc(-c4ccc5ccccc5c4)n3)C2)CCN1")
3.585
